TARGET SYSTEM: GSK3β (Homo sapiens)
Sequence (P49841 whole entry, species assumed): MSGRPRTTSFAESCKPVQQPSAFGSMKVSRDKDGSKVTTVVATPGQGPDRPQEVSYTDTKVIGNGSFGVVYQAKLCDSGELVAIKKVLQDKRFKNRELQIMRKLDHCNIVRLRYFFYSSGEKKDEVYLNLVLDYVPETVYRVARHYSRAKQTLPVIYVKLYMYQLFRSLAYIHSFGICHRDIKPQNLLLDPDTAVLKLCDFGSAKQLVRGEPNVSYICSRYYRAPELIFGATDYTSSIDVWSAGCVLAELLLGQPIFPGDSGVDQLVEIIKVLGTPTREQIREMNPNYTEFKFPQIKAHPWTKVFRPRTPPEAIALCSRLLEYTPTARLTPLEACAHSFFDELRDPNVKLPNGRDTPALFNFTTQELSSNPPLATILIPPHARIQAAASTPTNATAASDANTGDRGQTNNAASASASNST
TEST READOUT: IC50 (nM)

P. CN(C)Cc1cccc(-c2ccnc(Nc3ccc(O)cc3)n2)c1
Q. CCN(CC)Cc1cccc(-c2ccnc(Nc3cccc([N+](=O)[O-])c3)n2)c1
Lookup: Quick check, higher IC50 between P and Q ? Which one? Tell me its label.
Found: P

---

TARGET SYSTEM: CDK1/cyclin B (Homo sapiens, UniProt P06493)
Sequence (P06493 whole entry, species assumed): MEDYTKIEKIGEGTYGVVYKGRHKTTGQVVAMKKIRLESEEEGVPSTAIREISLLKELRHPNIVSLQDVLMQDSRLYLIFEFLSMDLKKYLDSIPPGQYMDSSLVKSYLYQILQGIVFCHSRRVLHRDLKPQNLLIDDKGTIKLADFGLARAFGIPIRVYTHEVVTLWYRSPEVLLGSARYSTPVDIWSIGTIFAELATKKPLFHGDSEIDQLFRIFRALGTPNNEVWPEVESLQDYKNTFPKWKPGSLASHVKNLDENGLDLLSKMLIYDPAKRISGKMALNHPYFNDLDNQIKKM
Sequence (P14635 whole entry partner, species assumed): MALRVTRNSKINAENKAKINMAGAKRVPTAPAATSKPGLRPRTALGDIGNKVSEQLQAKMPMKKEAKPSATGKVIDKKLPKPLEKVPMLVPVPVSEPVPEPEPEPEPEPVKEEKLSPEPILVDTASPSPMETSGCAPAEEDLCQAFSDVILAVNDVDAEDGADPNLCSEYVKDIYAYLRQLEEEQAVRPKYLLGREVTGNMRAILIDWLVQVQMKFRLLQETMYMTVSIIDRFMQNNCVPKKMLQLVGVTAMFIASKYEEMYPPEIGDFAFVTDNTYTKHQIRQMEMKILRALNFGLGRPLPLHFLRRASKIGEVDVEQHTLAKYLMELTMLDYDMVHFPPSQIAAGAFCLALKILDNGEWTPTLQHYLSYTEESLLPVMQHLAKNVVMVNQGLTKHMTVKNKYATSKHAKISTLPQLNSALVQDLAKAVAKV
EXPERIMENTAL PROTOCOL: Kinase assay, radioactive phosphate incorporation, CDK1/cyclin B
DETAILS: 100 μM ATP, 30° C.; read-out: Kinase inhibition IC50 CDK1/cyclin B
TEST READOUT: IC50 (nM)

Example molecules with recorded IC50:
| MOLECULE | EXPERIMENTAL VALUE |
| --- | --- |
| N#Cc1cccc(-c2ccnc(Nc3cccc(O)c3)n2)c1 [Compound 92] | 2100 |
| Oc1ccc(Nc2nccc(-c3cccc(Cl)c3)n2)cc1 [Compound 17] | 5300 |
| NC(=O)C1CCCN(Cc2cccc(-c3ccnc(Nc4cccc([N+](=O)[O-])c4)n3)c2)C1 (stereo not drawn) [Compound 99] | 1200 |
| COc1ccc(-c2ccnc(Nc3cccc(O)c3)n2)cc1 [Compound 76] | 1 |
| CN(C)Cc1cccc(-c2ccnc(Nc3ccc(O)cc3)n2)c1 [Compound 81] | 1300 |

1. O=[N+]([O-])c1cccc(Nc2nccc(-c3cccc(CN4CCOCC4)c3)n2)c1 [Compound 39]
2. CN(c1cccc(-c2ccnc(Nc3cccc(O)c3)n2)c1)S(C)(=O)=O [Compound 130]
Lookup: Quick check, higher IC50 between 1 and 2 ? Which one? Tell me its label.
Found: 2

I. CS(=O)(=O)NCc1cccc(-c2ccnc(Nc3cccc([N+](=O)[O-])c3)n2)c1 [Compound 40]
II. Oc1cccc(Nc2nccc(-c3cccc(Cn4cncn4)c3)n2)c1 [Compound 34]
III. COc1cccc(-c2ccnc(Nc3cccc(O)c3)n2)c1 [Compound 88]
IV. Oc1ccc(Nc2nccc(-c3ccc(Cl)c(Cl)c3)n2)cc1 [Compound 21]
V. COc1cccc(-c2ccnc(Nc3ccc(O)cc3)n2)c1 [Compound 98]
Lookup: # rank_down: sort by IC50, max first Field: ranking. Enter the labels in the order requested.
Found: IV, II, V, III, I

---

TARGET SYSTEM: GSK3β (Homo sapiens)
TEST READOUT: IC50 (nM)

| COMPOUND | OUTPUT UNIT | IC50 |
| --- | --- | --- |
| c1cc(Cn2cncn2)cc(-c2ccnc(Nc3ccc(N4CCOCC4)cc3)n2)c1 [Compound 32] | nM | 370 |

A. CS(=O)(=O)NCc1cccc(-c2ccnc(Nc3cccc([N+](=O)[O-])c3)n2)c1 [Compound 40]
B. Oc1cccc(-c2ccnc(Nc3cccc(F)c3)n2)c1 [Compound 57]
C. CCN(C(C)=O)c1cccc(-c2ccnc(Nc3ccc(OC)cc3)n2)c1 [Compound 23]
Lookup: # rank_down: sort by IC50, max first Field: ranking. Enter the labels in the order requested.
Found: C, B, A
